Test system: K562
assayRemarks: NCI tumour cell line growth inhibition, 48 h
The source made the active and inactive calls. No stated cut-off is given here; in the data, active = GI50 up to about 1.1 µM and inactive = higher.
Classes used: 1.0 for active, 0.0 for inactive

>>> class("CNc1nc(=S)[nH]c2sc3c(c12)CCCC3")
0.0
>>> class("CN(CC(=O)O)Cc1c[nH]c2ccccc12")
0.0
>>> class("CC(C)(C)OC(=O)Nc1nnc(S(N)(=O)=O)s1")
0.0
>>> class("O=c1c2ncn(C3CCCCO3)c2n(-c2ccccc2)c(=S)n1-c1ccccc1 (stereo not given)")
0.0
>>> class("CC(C)(C)c1cc(C(=O)O)c2c(c1)C(=O)OC2(c1ccccc1)c1ccccc1C(=O)O (stereo not given)")
0.0
>>> class("CC(=O)OC(C)c1cc2c(s1)C(=O)c1c(C(C)OC(C)=O)csc1C2=O (stereo not given)")
1.0
>>> class("CC(C)=CCC[C@@H](C)C1=CC(=O)C(C)=C(O)C1=O [ISOPEREZONE]")
0.0
>>> class("CSc1ccc(C2OC(=O)c3ccccc32)c2ccccc12 (stereo not given)")
0.0
>>> class("COC(=O)C(C(=O)C(=O)Nc1cccc(C)c1)C1=NC(N)SS1 (stereo not given)")
0.0
>>> class("COc1ccc(C=C2C(C)=NN(c3cccc(Cl)c3)C23C(Cl)C(=O)N3c2nc3ccccc3s2)cc1 (stereo not given)")
0.0
>>> class("O=C(/C=C1\\Nc2ccccc2C(=O)N1c1ccc(Cl)cc1)c1ccncc1")
0.0
>>> class("COc1cc2c(cc1OC)C(C(c1ccccc1)c1ccccc1)N(C)CC2 (stereo not given)")
0.0
>>> class("CCOC(=O)C1Cc2ccc(C)cc2C1=O (stereo not given)")
0.0
>>> class("Clc1ccc(-c2c(C3=NCCCN3)nnn2-c2ccc(Cl)cc2)cc1")
0.0
>>> class("[O-]c1c[n+](CCCC[n+]2cc([O-])on2)no1")
0.0
